# Test system: 786-0
# experiment_summary: NCI one-dose assay
# Type: cell-based, human
# test_context: Homo sapiens, 786-0, 786-0, Renal cancer, read-out: Cell growth inhibition %
Provide the recorded inhibition at 10 µM for the entries that follow.
Numbers only, in %.

>  <structure_notation>
O=C(CSc1nnc(-c2c[nH]c3ccccc23)n1-c1ccccc1)c1ccc(Br)cc1

>  <reported_result>
17.6

$$$$
>  <structure_notation>
Cc1ccc(/C(CSc2nnc(-c3c[nH]c4ccccc34)n2-c2ccccc2)=N/O)cc1

>  <reported_result>
97.8

$$$$
>  <structure_notation>
COc1ccc(/C(CSc2nnc(-c3c[nH]c4ccccc34)n2-c2ccccc2)=N/O)cc1

>  <reported_result>
40.3

$$$$

Provide reported inhibition at 10 µM for each item, in the same order as listed.
1. O/N=C(\CSc1nnc(-c2c[nH]c3ccccc23)n1-c1ccccc1)c1ccc(Br)cc1
2. C=CCn1c(SCC(=O)c2ccc(Cl)cc2)nnc1-c1c[nH]c2ccccc12
3. C=CCn1c(SC/C(=N\O)c2ccc(Cl)cc2)nnc1-c1c[nH]c2ccccc12
4. O/N=C(\CSc1nnc(-c2c[nH]c3ccccc23)n1-c1ccccc1)c1ccc(Cl)cc1

[65, 3.55, 11.1, 65.9]

Provide reported inhibition at 10 µM for each item, in the same order as listed.
1. C=CCn1c(SC/C(=N\O)c2ccc(Br)cc2)nnc1-c1c[nH]c2ccccc12
2. C=CCn1c(SC/C(=N\O)c2ccc(C)cc2)nnc1-c1c[nH]c2ccccc12
3. Cc1ccc(C(=O)CSc2nnc(-c3c[nH]c4ccccc34)n2-c2ccccc2)cc1
4. C=CCn1c(SC/C(=N\O)c2ccccc2)nnc1-c1c[nH]c2ccccc12
5. C=CCn1c(SCC(=O)c2ccc(C)cc2)nnc1-c1c[nH]c2ccccc12
6. O=C(CSc1nnc(-c2c[nH]c3ccccc23)n1-c1ccccc1)c1ccc(Cl)cc1
7. O/N=C(\CSc1nnc(-c2c[nH]c3ccccc23)n1-c1ccccc1)c1ccccc1

13.4
-2.2
135
4.91
2.26
55.1
17.9

Provide reported inhibition at 10 µM for each item, in the same order as listed.
1. C=CCn1c(SCC(=O)c2ccc(OC)cc2)nnc1-c1c[nH]c2ccccc12
2. COc1ccc(C(=O)CSc2nnc(-c3c[nH]c4ccccc34)n2-c2ccccc2)cc1

1: -1.31; 2: 54.8

Fill in the recorded inhibition at 10 µM for this compound, with 786-0 as test system: `C=CCn1c(SCC(=NO)c2ccc(OC)cc2)nnc1-c1c[nH]c2ccccc12` 0.73

====

Provide the recorded inhibition at 10 µM for the entries that follow.
# Tested on: SN12C
# experiment_summary: NCI one-dose assay
# Format: cell-based
# test_context: Homo sapiens, Renal cancer, read-out: Cell growth inhibition %
Numbers only, in %.

Please review the following examples before continuing.
>  <structure_notation>
C=CCn1c(SC/C(=N\O)c2ccc(Br)cc2)nnc1-c1c[nH]c2ccccc12

>  <inhibition at 10 µM, %>
16.3

$$$$
>  <structure_notation>
O=C(CSc1nnc(-c2c[nH]c3ccccc23)n1-c1ccccc1)c1ccc(Br)cc1

>  <inhibition at 10 µM, %>
27.1

$$$$
>  <structure_notation>
Cc1ccc(C(=O)CSc2nnc(-c3c[nH]c4ccccc34)n2-c2ccccc2)cc1

>  <inhibition at 10 µM, %>
75.1

$$$$
>  <structure_notation>
O/N=C(\CSc1nnc(-c2c[nH]c3ccccc23)n1-c1ccccc1)c1ccc(Br)cc1

>  <inhibition at 10 µM, %>
177

$$$$
>  <structure_notation>
COc1ccc(/C(CSc2nnc(-c3c[nH]c4ccccc34)n2-c2ccccc2)=N/O)cc1

>  <inhibition at 10 µM, %>
54.2

$$$$
>  <structure_notation>
C=CCn1c(SCC(=NO)c2ccc(OC)cc2)nnc1-c1c[nH]c2ccccc12

>  <inhibition at 10 µM, %>
8.24

$$$$
>  <structure_notation>
C=CCn1c(SC/C(=N\O)c2ccc(C)cc2)nnc1-c1c[nH]c2ccccc12

>  <inhibition at 10 µM, %>
11.7

$$$$
>  <structure_notation>
O=C(CSc1nnc(-c2c[nH]c3ccccc23)n1-c1ccccc1)c1ccc(Cl)cc1

>  <inhibition at 10 µM, %>
35.4

$$$$

Provide reported inhibition at 10 µM for each item, in the same order as listed.
1. Cc1ccc(/C(CSc2nnc(-c3c[nH]c4ccccc34)n2-c2ccccc2)=N/O)cc1
2. C=CCn1c(SCC(=O)c2ccc(C)cc2)nnc1-c1c[nH]c2ccccc12
3. O/N=C(\CSc1nnc(-c2c[nH]c3ccccc23)n1-c1ccccc1)c1ccccc1
4. C=CCn1c(SC/C(=N\O)c2ccccc2)nnc1-c1c[nH]c2ccccc12

1: 137; 2: 5.47; 3: 42.6; 4: 2.4
